assay.system: human HER3 on cells (human) (UniProt P21860)
assay.summary: FACS on Human HER3-CHO cells
measurement.label: MFI (MFI)
Give bare numbers, in MFI.

{"columns": ["binder", "MFI, MFI"],
 "data": [
  ["mHE4 (antibody, V domains shown) VH: EVQLVESGGGLVKPGGSLKLSCAASGFTFSSYVMSWVRQTPEKRLEWVATISDGDSSTYYPDNVKGRFTISRDNAKNNLFLQMSHLKSEDTAMYFCARDKGHGYDEGAFVYWGQGTLVTVSA VL: DIQMTQSPASLSASVEETVTITCRASENIYSYLAWYQQKQGKSPQLLVYNAKTLAEGVPSRFSGSGSGTEFSLKINSLQPEDFGSYYCQNHYGTPYTFGGGTKLEIKQ", 199],
  ["mHE2 (antibody, V domains shown) VH: EVKLQESGPGLVKPSQSLSLTCSVTGYSITSGYYWNWIRQFPGNKLEWMGYISYDGSNNYNPSLKNRISITRDTSKNQFFLKLNSVTTEDTATYYCARMDWDGDAMDYWGQGTSVTVSS VL: DIVLTQSPASLAVSLGQRATISCRASESVDNYGISLMHWYQQKPGQPPKLLIYRASNLESGIPARFSGSGSRTDFTLTINPVETDDVATYYCQQSNKDPPTFGAGTKLELKR", 195]
]}

Now look at this one.
Answer with reported MFI of mHE6 (antibody, V domains shown) VH: EVQLQQSGPDLVKPGTSVKMSCKASGYTFTDYYMHWVRQSHGKSLEWIGYINPNNGDAIYNQKFKGKATLTVNKSSTTAYMALRSLTSEDSAVYFCATYDYGGDFYFDVWGTGTTVTVSS VL: DIELTQSPALMSASPGEKVTMTCSASSSVSYMYWYQQKPRSSPKPWIYLTSNLASGVPARFSGSGSGTSYSLTISSMEAEDAATYYCQQWSRNPLTFGAGTKLELKR
205
